Listed next: entries and their corresponding Ki.
Target: 5-hydroxytryptamine receptor 1A (Homo sapiens, UniProt P08908)
Sequence (P08908 whole entry): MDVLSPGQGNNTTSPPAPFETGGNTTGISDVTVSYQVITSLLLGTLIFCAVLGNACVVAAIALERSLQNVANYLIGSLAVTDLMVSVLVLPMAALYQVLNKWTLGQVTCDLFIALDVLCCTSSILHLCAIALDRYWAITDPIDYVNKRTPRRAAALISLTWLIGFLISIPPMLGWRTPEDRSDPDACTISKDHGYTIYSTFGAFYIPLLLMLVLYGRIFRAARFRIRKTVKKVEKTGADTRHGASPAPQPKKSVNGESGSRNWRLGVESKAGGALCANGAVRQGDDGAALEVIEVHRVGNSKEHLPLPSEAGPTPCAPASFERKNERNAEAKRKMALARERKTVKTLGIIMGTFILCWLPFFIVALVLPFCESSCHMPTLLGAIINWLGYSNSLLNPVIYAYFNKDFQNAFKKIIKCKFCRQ
Assay: Evaluated for the binding constant at [3H]8-OH-DPAT-labeled human 5-hydroxytryptamine 1A receptor
assayMetric: Ki (nM)

{"columns": ["querySmiles", "recordedNumber"],
 "data": [
  ["CCN(CC)CCc1c[nH]c2cc(F)ccc12", 256],
  ["CCN(CC)CCc1c[nH]c2ccccc12", 47],
  ["CCN(CC)CCc1c[nH]c2ccc(OC)cc12", 1.7],
  ["CN(C)CCc1c[nH]c2cc(F)cc(O)c12", 114],
  ["COc1cc2c(CCN(C)C)c[nH]c2cc1F", 84.5]
]}
